Ref: patent US20250171542A1

# Internalization (%), FACS, 0.25 µg/ml, 2 h annotations
TEST_TARGET: human PD-L1 expressed on cell surface (human, UniProt Q9NZQ7 19-290)
Sequence (Q9NZQ7 19-290 limits assumed): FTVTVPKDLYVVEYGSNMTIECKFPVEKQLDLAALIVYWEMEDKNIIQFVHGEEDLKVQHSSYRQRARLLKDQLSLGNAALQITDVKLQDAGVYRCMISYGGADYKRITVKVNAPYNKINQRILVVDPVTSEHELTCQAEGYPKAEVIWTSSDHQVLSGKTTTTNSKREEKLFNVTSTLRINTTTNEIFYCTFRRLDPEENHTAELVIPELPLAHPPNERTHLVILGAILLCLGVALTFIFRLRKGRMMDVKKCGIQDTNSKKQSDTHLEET
EXPERIMENTAL_DETAILS: cell-based or functional assay
Just the number please, in %, no unit attached.

According to the records, this binder 56H3 (antibody, human IgG1, V domains shown) VH: QEQLVESGGGLVQPEGSLTLTCTASEFSFSNNYYMSWVRQAPGKGLEWLGSIGIGSGITDYASWAKGRFTISKASSTTVTLQMTTLTAADTAIYFCARWTSGGGGFGLWGPGTLVTVSS VL: QVLTQTSSPVSAAVGGTVTINCQSSQTIYSDYLFWYQQKPGQPPKLLIYQTSTLASGVPSRFSGSGSGTQFTLTISGVQCDDAATYYCQGYYSGYIWTFGGGTEVVVN displays Internalization (%), FACS, 0.25 µg/ml, 2 h of 16.3

According to the records, this binder 73C8 (antibody, human IgG1, V domains shown) VH: QEQLEESGGGLVQPEGSLTLTCTVSGFSFSGDYYMSWVRQAPGKGLEWVASIYTGSLNTYYATWAKGRFTISLTSSTTVTLQMTSLTAADTATYFCARRNKNADYGHFDLWGPGTLVTVSS VL: YDMTQTPASVEVAVGGTVTIKCQASQSINDRLAWYQQKPGQPPKLLIYAASTLASGVPSRFRGSGSGTDFTLTISDLECADAATYYCQQGWTVSSLDNAFGGGTEVVAM displays Internalization (%), FACS, 0.25 µg/ml, 2 h of 22

According to the records, this binder 74F4 (antibody, human IgG1, V domains shown) VH: QEQLEESGGGLVQPEGSLTLTCTASGFSFSGDYYMSWVRQAPGKGLEWIASIYTGSLNTYYATWAKGRFTISLTSSTTVTLQMTSLTAADTATYFCARRNKNADYGHFDLWGPGTLVTVSS VL: YDMTQTPASVEVAVGGTVTIKCQASQSINDRLAWYQQSPGQPPKLLIYGASTLASGVPSRFKGSGSGTDFTLTISDLECADAATYYCQQGWTVSSLDNAFGGGTEVVAK displays Internalization (%), FACS, 0.25 µg/ml, 2 h of 19

According to the records, this binder 55H3/76D6 (antibody, human IgG1, V domains shown) VH: QEQLEESGGGLVQPEGSLTLTCTVSGFSFSGDYYMSWVRQAPGKGLEWVASIYTGSLNSYYATWAKGRFTISLTSSTTVTLQMTSLTAADTATYFCARRNKNADYGHFDLWGPGTLVTVSS VL: YDMTQTPASVEVAVGGTVTIKCQASESINDRLAWYQQKPGQPPKLLIYAASTLASGVPSRFRGSGSGTDFTLTISDLECADAATYYCQQGWTVSSLDNAFGGGTEVVAM displays Internalization (%), FACS, 0.25 µg/ml, 2 h of 22.9

More entries:
According to the records, this binder 28B3 (antibody, human IgG1, V domains shown) VH: QSVEESGGRLVTPGTPLTLSCTASGFSLSSYYMIWVRQAPGKGLEYIGYVYTGSGNTWYASWAKGRFAISKASTTVDLMITSPTTEDTATYFCASGADGVYDWGWDIWGPGTLVTVSL VL: DIVMTQTPASVEAAVGDTVTIKCQASQSIYSLLAWYQQKPGQRPKLLIAGASNLESGVPSRFSGSGSGTEYTLTISALECADAATYYCQNNYDSGRIYGLAFGGGTEVVVK displays Internalization (%), FACS, 0.25 µg/ml, 2 h of 20.4
